# Test system: MALME-3M melanoma
# Protocol text: NCI tumour cell line growth inhibition, 48 h; in the data active = GI50 below about 0.43 µM; inactive = the rest
Thanks in advance; please answer with one of these: Yes for active, No for inactive

Problem: What call does the record list for `CCOC(=O)c1ccc(N2NC(=O)/C(=C/c3ccc([N+](=O)[O-])o3)C2=O)cc1` ?
Result: No

Problem: // next record `CCCCCSc1ccc2nc(NC(=O)OCC)sc2c1`
Result: No

Problem: // next record `Oc1ccc(N=Nc2ccc(Br)cc2)c(O)c1`
Result: No

Problem: // next record `CN1CCN(C)C1c1ccc(C2N(C)CCN2C)cc1`
Result: No

Problem: // next record `ClCc1ccccc1Cn1cnc2nc(Cl)nc(Cl)c21`
Result: No

Problem: // next record `CC(=O)O[C@@H]1c2c(c3c(=O)c4cccc(O)c4c(=O)c=3c2=[N+]=[N-])[C@H](OC(C)=O)[C@@H](OC(C)=O)[C@]1(C)O`
Result: Yes

Problem: // next record `O=C(Nc1ccc(I)cc1F)c1cc(Br)ccc1O`
Result: Yes

---

Provide the recorded TGI for the entries that follow.
# System: SF-539 CNS
# Protocol text: NCI tumour cell line growth inhibition, 48 h
Answer in µM, number only, no unit symbol.

Problem: Query (molecule): `c1cc[c]([Ge]([O]c2cccc3cccnc23)([c]2ccccc2)[c]2ccccc2)cc1` ; field requested: TGI
Result: 11.3

Problem: // next record COc1cccc(/C=C2\CCC(CN(C)C)C2=O)c1 (stereo not given)
Result: 27.9

Problem: // next record `N#Cc1c(N)nc2c(c1-c1ccc(Cl)cc1)COc1ccc(F)cc1-2`
Result: 40.1

Problem: // next record `CCCCN(CCCC)P(=O)(Oc1ccccc1)Oc1ccccc1`
Result: 28.6

Problem: // next record `COc1ccc(-c2cnc(-c3ccc(OC)cc3)n2-c2cc(OC)c(OC)c(OC)c2)cc1`
Result: 54.9

Problem: // next record `O=C1Nc2cccc(Cl)c2/C1=C\c1cccnc1`
Result: 39.7

Problem: // next record `COc1ccc2c(n1)Sc1nc3ccccc3nc1N2`
Result: 50.1

Problem: // next record NC(=O)c1cn(C2CC(O)C(CO)O2)c2ncnc(N)c12 (stereo not given)
Result: 15.1

Problem: // next record `CCCCCN(CCCCC)CCC[C@@H](C)[C@H]1CC[C@H]2[C@@H]3[C@H](OCCCN)C[C@@H]4C[C@H](OCCCN)CC[C@]4(C)[C@H]3C[C@H](OCCCN)[C@]12C`
Result: 4.3

Problem: // next record `C=C(CN(C)C)C(=O)c1ccccc1OC`
Result: 31.5

---

# Tested on: MDA-MB-231 breast
# Protocol text: NCI tumour cell line growth inhibition, 48 h
Quantity kind: TGI

Problem: Query (compound): CCOC(=O)C1CCCc2sc(N)c(C#N)c21 (stereo not given) ; field requested: TGI
Result: > 100 µM

Problem: // next record CC1(C)C(=O)/C=C\C(=O)C(C)(C)C2=CC=C(O2)C(C)(C)C(=O)C(Br)C(Br)C(=O)C(C)(C)C2=CC=C1O2 (stereo not given)
Result: > 86.7 µM

Problem: // next record `O=S(O)O.O=S(O)O.[Co].[NH2-].[NH2-].[NH2-].[NH2-]`
Result: > 100 µM

Problem: // next record CC1(C)CN(CC(=O)O)CC(Cc2ccc(OCC(=O)O)cc2)N(CC(=O)O)CC(C)(C)SS1 (stereo not given)
Result: > 100 µM

Problem: // next record N#CC(O)CCOCc1ccccc1 (stereo not given)
Result: > 100 µM

Problem: // next record `Cn1c(-c2ccccc2)cc(-c2ccc3c(c2)OCO3)c1-c1ccsc1`
Result: > 100 µM

Problem: // next record `CCNCC(=O)Nc1ccc2c(c1)C(=O)c1ccc(NC(=O)CNCC)cc1C2=O`
Result: 9.88 µM

Problem: // next record `Cc1csc2nc(-c3cccc([N+](=O)[O-])c3)c(/C=N/N=C(N)N)n12`
Result: 2.95 µM

Problem: // next record `O=Cc1ccc(-c2ccc(-c3nc4ccccc4s3)cc2)o1`
Result: 68.1 µM

Problem: // next record COc1cc(/C=C2\CCC(C)C3=C2N=c2s/c(=C/c4ccc(Cl)cc4)c(=O)n2C3c2cc(OC)c(OC)c(OC)c2)cc(OC)c1OC (stereo not given)
Result: > 100 µM

Problem: // next record OCC1OC(N2C=C(c3nc4ccccc4s3)C3C=CC=CC32)C(O)C(O)C1O (stereo not given)
Result: > 50 µM

Problem: // next record `OCc1ccc(-c2nc(-c3ccc4c(c3)OCO4)c(-c3ccccn3)[nH]2)cc1`
Result: > 25 µM

Problem: // next record CC(NNC(=O)c1ccncc1)c1ccccc1 (stereo not given)
Result: > 100 µM

Problem: // next record COC(=O)C1(Cc2ccccc2)Cc2ccccc2C1O (stereo not given)
Result: > 100 µM

Problem: // next record `COc1ccc(-c2cnc(-c3ccc(OC)cc3)n2-c2cc(OC)c(OC)c(OC)c2)cc1`
Result: 74.3 µM

Problem: // next record `CC(=O)Nc1ccc(S(=O)(=O)c2nnc(NC(C)=O)s2)cc1`
Result: > 100 µM

Problem: // next record `COC(=O)CCc1n(Cc2ccc3ccccc3c2)c2ccccc2[n+]1Cc1ccc2ccccc2c1`
Result: 2.19 µM

Problem: // next record `CCOC(=O)C(=[N+]=[N-])C(=O)CSC#N`
Result: > 100 µM

Problem: // next record `Cc1ccc(-c2cc(C(=O)Nc3ccc(S(=O)(=O)N4CCCCC4)cc3)[nH]n2)c(O)c1`
Result: > 100 µM

Problem: // next record `O=C(Nc1ccc(I)cc1F)c1cc(Br)ccc1O`
Result: 4.73 µM

Problem: // next record CCOC(=O)Cc1csc(NC(=O)C(OC(=O)c2ccc(Cl)cc2)c2ccccc2)n1 (stereo not given)
Result: > 100 µM

Problem: // next record `COc1cc2c3c(n(CCCN=[N+]=[N-])c(=O)c2cc1OC)-c1ccccc1C3=O`
Result: > 100 µM

Problem: // next record `COc1ccc2c(=O)c3ccoc3[nH]c2c1`
Result: > 100 µM

Problem: // next record `COc1cc(CSc2nc3ccc(Cl)cc3c(=O)n2Cc2ccccc2)cc(OC)c1OC`
Result: > 100 µM

Problem: // next record COc1ccccc1NC1Oc2cc3c(cc2C(c2cc(OC)c(OC)c(OC)c2)C1C)OCO3 (stereo not given)
Result: > 23.9 µM

Problem: // next record `Cn1cnc([N+](=O)[O-])c1S(=O)(=O)Oc1ccc(Cl)cc1`
Result: 5.99 µM

Problem: // next record `O=C1NC(=O)C(CCC(=O)c2cccc3ccccc23)C(=O)N1`
Result: > 100 µM

Problem: // next record `CCOC(=O)c1c(NC(=S)Nc2ccccc2)sc2c1CCN(C)C2`
Result: > 100 µM

Problem: // next record O=S(=O)(CC(Cl)c1ccccc1)c1nc2ccccc2s1 (stereo not given)
Result: 30.4 µM

Problem: // next record Nc1nc(Sc2ccc([N+](=O)[O-])c3nonc23)c2ncn(C3OC(CO)C(O)C3O)c2n1 (stereo not given)
Result: 14.8 µM

Problem: // next record `Oc1nc(N2CCOCC2)sc1/C=C1\C=Nc2ccccc21`
Result: > 100 µM

Problem: // next record NC(=O)c1ncn(C2C=CC(CP(=O)(O)O)C2)c1N (stereo not given)
Result: > 100 µM

Problem: // next record `Cc1cc(-c2nc3sc(C)cn3c2/C=N/N=C(N)N)c(C)s1`
Result: 16.3 µM

Problem: // next record `CCCCCCOC(=O)CC1=C(C)/C(=C/c2[nH]c(-c3ccc[nH]3)cc2OC)N=C1C`
Result: 0.626 µM

Problem: // next record `Cn1c(=O)c2c(nc3n2CCCC(=O)N3CCCCl)n(C)c1=O`
Result: > 100 µM
